Would you mind telling me the reported peptide exchange yield of each entry?
- assay-target: HLA-A*24 (human)
- assay: UV-ligand exchange, anti-b2m ELISA

Please review the following examples before continuing.
binder | quantity-name | result
IYQLDTASI [SEQ ID NO: 182 peptide …] | peptide exchange yield | 50 to 75%
TYGDAGLTYTF [SEQ ID NO: 283 peptide …] | peptide exchange yield | 50 to 75%

Go through the items and report each one's peptide exchange yield.
1. FFPPTRQMGLLF [SEQ ID NO: 217 peptide …]
2. KYIPYKYVI [SEQ ID NO: 223 peptide …]
3. TFSVSSHLF [SEQ ID NO: 222 peptide …]
4. DYLKGLASF [SEQ ID NO: 163 peptide …]
5. NYINRILKL [SEQ ID NO: 167 peptide …]
6. AYTLIAPNI [SEQ ID NO: 169 peptide …]

Reply text:
1: > 75%; 2: 50 to 75%; 3: 50 to 75%; 4: > 75%; 5: > 75%; 6: 50 to 75%

These data points were gathered from patent US20170189504A1.
